Test summary: Aqueous solubility measurements
Assay type: physicochemical
Setup conditions: final pH of saturated solution; media pH 4.5 (USP); 24 hours at 25° C.
Experimental readout: pH

Cc1nc(-c2ccc(OCC(C)C)c(C#N)c2)sc1C(=O)O [Form IX] | 4.524
Cc1nc(-c2ccc(OCC(C)C)c(C#N)c2)sc1C(=O)O [Form G of U.S. Pat. No. 6,225,474, reference compound] | 4.469
Cc1nc(-c2ccc(OCC(C)C)c(C#N)c2)sc1C(=O)O [Form XI] | 4.479
Cc1nc(-c2ccc(OCC(C)C)c(C#N)c2)sc1C(=O)O [Form V] | 4.452

The reported numbers originate from patent US20130225830A1.
